For each entry below, report its IC50 value.
system_under_test: Human chymase (Homo sapiens)
experiment_notes: Measurement of inhibitory activity of human chymase (Ang I substrate, His-Leu/OPT fluorescence)

Check the records and state IC50 for `Cc1c(S(=O)(=O)Nc2ccc(-c3cnco3)cc2S(C)(=O)=O)sc2ccc(F)cc12`
45 nM

Check the records and state IC50 for `Cc1c(S(=O)(=O)Nc2ccc(-c3nc(C(=O)O)cs3)cc2S(C)(=O)=O)sc2ccc(F)cc12`
7 nM

Check the records and state IC50 for `Cc1c(S(=O)(=O)Nc2ccc(-c3nc(C(=O)O)co3)cc2S(C)(=O)=O)sc2ccc(Cl)cc12`
150 nM

Check the records and state IC50 for `Cc1c(S(=O)(=O)Nc2ccc(-c3nc(C(=O)O)co3)cc2S(C)(=O)=O)sc2ccc(F)cc12`
37 nM

Check the records and state IC50 for `CC(=O)c1ccc(NS(=O)(=O)c2sc3ccc(Cl)cc3c2C)c(S(C)(=O)=O)c1`
271 nM

Check the records and state IC50 for `Cc1c(S(=O)(=O)Nc2ccc(-c3ncco3)cc2S(C)(=O)=O)sc2ccc(F)cc12`
55 nM

Check the records and state IC50 for CS/C(=C\c1ccc(NS(=O)(=O)c2sc3ccc(F)cc3c2C)c(S(C)(=O)=O)c1)[S+](C)[O-] (stereo not shown)
20 nM

---

For each entry below, report its Residual ratio in rat plasma value.
experiment_notes: Stability in rat plasma
Format: in vitro ADME
reported_conditions: 10 μg/mL, 37° C., 60 minutes, HPLC
Field: numeric (%). Do not append units.

Check the records and state Residual ratio in rat plasma for `CCOC(=O)c1ccc(NS(=O)(=O)c2sc3ccc(Cl)cc3c2C)cc1`
79.2

Check the records and state Residual ratio in rat plasma for `CC(=O)c1ccc(NS(=O)(=O)c2sc3ccc(F)cc3c2C)c(S(C)(=O)=O)c1`
96.2

Check the records and state Residual ratio in rat plasma for `COC(=O)c1ccc(NS(=O)(=O)c2sc3ccc(Cl)cc3c2C)c(S(C)(=O)=O)c1`
93.9

Check the records and state Residual ratio in rat plasma for `Cc1c(S(=O)(=O)Nc2ccc(-c3nc(C(=O)O)co3)cc2S(C)(=O)=O)sc2ccc(Cl)cc12`
100

Check the records and state Residual ratio in rat plasma for `Cc1c(S(=O)(=O)Nc2ccc(-c3nc(C(=O)O)co3)cc2S(C)(=O)=O)sc2ccc(F)cc12`
100

Check the records and state Residual ratio in rat plasma for `CCS(=O)(=O)c1cc(C(=O)OC)ccc1NS(=O)(=O)c1sc2ccc(Cl)cc2c1C`
93.5

Check the records and state Residual ratio in rat plasma for `COC(=O)c1cc(S(C)(=O)=O)c(NS(=O)(=O)c2sc3ccc(Cl)cc3c2C)cc1C`
85.2

---

system_under_test: Human chymase (Homo sapiens, UniProt P23946)
Sequence (P23946 22-247): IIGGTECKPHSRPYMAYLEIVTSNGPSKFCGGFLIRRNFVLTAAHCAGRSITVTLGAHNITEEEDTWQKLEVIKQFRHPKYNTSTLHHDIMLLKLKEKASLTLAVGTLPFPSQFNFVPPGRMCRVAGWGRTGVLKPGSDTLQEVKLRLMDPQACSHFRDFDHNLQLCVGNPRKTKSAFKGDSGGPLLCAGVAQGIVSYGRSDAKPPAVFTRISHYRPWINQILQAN
experiment_notes: Measurement of inhibitory activity of human chymase (Ang I substrate, His-Leu/OPT fluorescence)
reported_conditions: read-out: Human cymase IC50 value; human chymase from silkworms infected with baculovirus; 120 minutes at 37° C.
For each entry below, report its IC50 value.
Field: numeric (nM). Do not append units.

Check the records and state IC50 for COC(=O)c1ccc(NS(=O)(=O)c2sc3ccc(Cl)cc3c2C)c(S(C)(=O)=O)c1 [Compound 1]
203

Check the records and state IC50 for CC(=O)c1ccc(NS(=O)(=O)c2sc3ccc(F)cc3c2C)c(S(C)(=O)=O)c1 [Compound 19]
82

Check the records and state IC50 for COC(=O)c1ccc(NS(=O)(=O)c2sc3ccc(F)cc3c2C)c(S(C)(=O)=O)c1 [Compound 17]
56

Check the records and state IC50 for COC(=O)c1ccc(NS(=O)(=O)c2sc3ccccc3c2C)c(S(C)(=O)=O)c1 [Compound 20]
305

Hey, just so you know, these numbers are from patent US7071220B2.
